- PROTOCOL TEXT: yeast display, Sf9 membrane polyspecificity reagent, FACS + sequencing; frameworks hold sequencing errors
MEASURED ATTRIBUTE: polyreactivity (PSR sort gate)

QVQLVESGGGLVQAGGSLRLSCAASGSIFPGNALGWYRQAPGKERELVAVIDFSGASTYYADSVKGRFTISRDNAKNTVYLQMNRLKPEDTADYWGQGTQVTVSS    low polyreactivity
QVQLVESGGGLVQAGGSLRLSCAASGIIFNYNAMGWYRQAPGKERELVATISSGDSTNYADSVKGRFTISRDNAKNTVYLQMNSLKPEDTAVYYCAAESPSVFDGYAQLYIILEDYWGQGTQVTVSS    low polyreactivity

====

- PROTOCOL TEXT: yeast display, Sf9 membrane polyspecificity reagent, FACS + sequencing; frameworks hold sequencing errors
MEASURED ATTRIBUTE: polyreactivity (PSR sort gate)

// known answers, use as guide
QVQLVDSGGGLVQAGGRLRLSCAASGSTFGWYGMGWYIQAPGKERELVASINWRGSSTYYADSVKGRFTMSRDNAKNTVYLQMNSLKPEDTAVYYCATTRDWAYNYWGQGTQVTVSS    low polyreactivity
QVQLVESGGGLVQAGGSLRLSCAASGSTFRDYAMGWYRQAPGKERELVAAITYSDGGTYYADSVKGRFTISRDNAKNTVYLQMNSLKPEDTAVYYCAADYPIYSFYYSAYFIFGYWGQGSQVTVSS    low polyreactivity
QVQLVESGGGLVQAGGSLRLSCAASGRIFYYYAMGWYRQAPGKESELVAAISGGGGRTYYADSVKGRFTISRDNAKHTVYLQMNSLKPEDTAVYYCNADYFYRTVNQRYDYWGQGTQVTVSS    high polyreactivity
QVQLVESGGGLVQAGGSLRLSCAASGLIFIIYTMGWYRQAPGKERELVAAITRRGGITYYADSVKGRFTISRDYAKNTVYLQMNSLKPEDTAVYYCAVVRPYNIWYDYWGQGTQVTVSS    low polyreactivity
QVQLVESGGGLVQAGGSLRLSCAASGRTFRSNAMGWYRQAPGKEREFVAAISSGGSTKYADSVKGRFTISRDNAKNTVYLQMNSLKPEDTAVYYCAAVSHSRYWGEGTQVTVSS    high polyreactivity

[in] Give the measured polyreactivity (PSR sort gate) of QVQLQESGGGLVLAGGSLRLSCAASGNIFVYSYMGWYRQAPGKEREFVAAIGAGSTTYYADSVSRFTISRDNAKNTVYLQMNSLKPEDTAVYYCNAEITVNDDDYWGQGTQVTVSS .
[out] low polyreactivity

[in] Give the measured polyreactivity (PSR sort gate) of QLQLVESGGGLVQAGGSLRLSCAASGSTSVTNAMGWYRQAPGKEREFVATINYSGTSTYYADSVKGRFTISRDNAKNTVYLQMNSLKPEDTAVYYCNAHDFGFYRFSLPGYDYWGQGTQVTVSS .
[out] low polyreactivity

[in] Give the measured polyreactivity (PSR sort gate) of QVQLVESGGGLVQAGGSLRLSCAASGSIFTGNTMGSDRQAPGKERELVAAISRSGGSTYYADSVKGRFTISRDNAKNTVYLQMNSLKPEDTAVYYCAAYRTHGPPRAIRFDYWGQGTQVTVSS .
[out] high polyreactivity

====

- PROTOCOL TEXT: yeast display, Sf9 membrane polyspecificity reagent, FACS + sequencing; frameworks hold sequencing errors
MEASURED ATTRIBUTE: polyreactivity (PSR sort gate)

QVQLVESGGGLVQAGGSLRLSCAASGGILVGYDMGWYRQAPGKERELVAAINYSGGSTNYADSVKGRFTISRDNAKNTVYLQMNSLKTEDTALYYCAARSTARYGYWGQGTQVTVSS    low polyreactivity
QVQLVESGGGLVQAGGSLRLSCAASGLTFWYNAMGWYRQAPGKERELVAAINSGGRTNYADSVKGRFTISRDNAKNTVYLQMNSLKPEDTAVYYCAAVRHWTVGWTYYYWGQGTQVTVSS    high polyreactivity
QVQLVESAGGLVQAGGSLRLSCAASGRTFVHYAIGWYRPAPAKERELVAAISWSGGSTYYADSVKGRFTISRDNAKNTGYLQMNSLKPEDTAVYYCNAGGFAPGRYGEFDYWGQGTQVTVSS    low polyreactivity
QVQLVESGGGLVQAGGSLRLSCAASGGIFSTYTMGWSRQAPGKERELVAAITTGNSTYYADSVKGRFTISRDNAKNTVYLQMNSLKPEDTAVYYCAAFAASRDYYRRLIHDGYDYWGQGTQVTVSS    low polyreactivity
QVQLVESGGGLVQAGGSRRLSCAASGSTFGWYVMGWYRPAPGKDREFVAAIDNSGGDTYYADSLKGRFTISRDTAKNTVYLQMNSLKPEDTAVYYCDDEAYTRASFENDYWGQGTQVTVSS    low polyreactivity

[in] Give the measured polyreactivity (PSR sort gate) of QVQLVESGGGLVQAGGSLRLSCAASGFTFSAYDMGWYRQAPGKERELVAAISWSGGRTYYADSVKGRFTISRDNAKNTVYLQMNSLKPEDTAVYYCNAASLRYSYTLFDSWGQGTQVTVSS .
[out] high polyreactivity

[in] Give the measured polyreactivity (PSR sort gate) of QVQLVESGGGLVQAGGSLRLSCAASGSIFTYYAMGWYRQATRKERELLADIRWSVGSTYYADSVKGRFTISRDNAKNTVYLQMNSLKPEDTAVYYCNAVVYIYYLTSYKYGNDSWGQGTQVTVSS .
[out] low polyreactivity

====

- PROTOCOL TEXT: yeast display, Sf9 membrane polyspecificity reagent, FACS + sequencing; frameworks hold sequencing errors
MEASURED ATTRIBUTE: polyreactivity (PSR sort gate)

// known answers, use as guide
QDQLVESGGGLVQAGGSLRLSCAASGSTFGYYAMGWYRQAPRKERELVAAISWRGGSTSYADSVKGRFTISRDNAKNTVYLQMNSLKPEDTAVYYCAAPRGTLTSWAGNYWGQGTQVTVSS    high polyreactivity
QVQLVESGGGLVQAGGRLRLICAASGSILRYAMGWYIQAPGKERELVAAISYGGGSTYYADSVKGRFTISRDNAKNTVYLQMNSLKPEDTAVYYCNARQYVWYPYEYWGQGTQVTVSS    high polyreactivity
QDQLVESGGGLVQAGGSLSLSCAASGRIFYWYVIGWYRQAPGKEREYVASISWSGGSTYYADSVKGRFTISRDNAKNTVYLQMNSLKPEDTAVYYCNAGSVYTVSLTGHPYDYWGQGTQVTVSS    low polyreactivity
QVQLVESGGGLVQAGGSLRLSCAASGRTFYRYAMGWYRQAPGKERELVAAITTGGGSTYYADSVKGRFTISRDNAKNTVYLQMNSLKPEDTAVYYCNVYSSYTRRTLGDYWGQGTQVTVSS    high polyreactivity
QVQLVESGGGLVQAGGSLRLSCAASGITFGYNAMGWYRQAPGKERELVAAISWRVGSTSYADSVKGRFTISRDNAKNTVYLQMNSLKPEDTAVYYCAAVRYNYNFKMYYWGQGTQVTVSS    high polyreactivity

[in] Give the measured polyreactivity (PSR sort gate) of QVHLLESGGGLVQAGGSLRLSCAAPGSTLFNYDMGWSRQAPGKERELLAAITTSGDSTYYADSVKGRFTISRDNAKNTVYFQMNSLKPEDTAVYYCNADVFKTVFYIDRYYYWGQGTKVTVSS .
[out] low polyreactivity

[in] Give the measured polyreactivity (PSR sort gate) of QVQLVESGGGLVQAGGSLRLSCAASGFIYYSYTMGWYRQAPGKERELVATISSNGGRTYYADSVKGRYTISRDNAKNTVYLQMNSLKPEDTAVYYCATDVPHGYYWSYGDYYWGQRTQVTVSS .
[out] low polyreactivity

====

- PROTOCOL TEXT: yeast display, Sf9 membrane polyspecificity reagent, FACS + sequencing; frameworks hold sequencing errors
MEASURED ATTRIBUTE: polyreactivity (PSR sort gate)

QVQLVESGGGLVQAGGSLRLSCAASGSIFPHYAMGWYRQAPGKEREFVATISGSTGRTYYADSVKGRFTISRDNAKNTVYLQMNSLKPEDTAVYYCATSVGYYLPPIKYDYWGQGTQVTVSS    low polyreactivity
PVQLVESGGGLVQAGGSLRLSCAASGFIFRRNAMGWYRQAPGKERELVASIRSGGSTKYADSVKGRFTISRDNAKNTVYLQMTSLKPEDTAVYYCNAEDPGYAVRWYWFKYDYWGQGTQVSVSS    low polyreactivity

====

- PROTOCOL TEXT: yeast display, Sf9 membrane polyspecificity reagent, FACS + sequencing; frameworks hold sequencing errors
MEASURED ATTRIBUTE: polyreactivity (PSR sort gate)

QVQLVESGGGLVQAGGSLRLSCAASGSIFVYYTMGWYRQSPGKEREMVAAITYSGGSKYYADSVKGRFTISRDNAKNTVYLQMNRLKPEDTAVYYCNAKSAAHRYVRRHDYWGQGTQVTVSW    low polyreactivity
QVQLVESGGGLVQAGGSLRLSCAASGIIFARYAMGWYRQAPGKERELVASINWTGGNTYADSVKGRFTISRDNAKNTVYLQMNSLKPEDTAVYYCARDFCPGSSDPKASISFDHWGQGTQVTVSS    low polyreactivity
